# target.under.test: β5 subunit of the human constitutive 20S proteasome (Homo sapiens, UniProt P20618+P28074)
# Construct: human erythrocyte 20S; purchased R&D Systems, Inc; host or cells: human erythrocytes (native, purified from tissue)
# method: In vitro β5 proteasome inhibitory activity and kinetic constants (Suc-LLVY-AMC, chymotrypsin-like activity)
# Assay type: biochemical
# conditions.used: second-order rate constant, k2/Ki ratio; read-out: k assoc (k2/Ki)
measure: kinact/KI (M⁻¹ s⁻¹)

CCCCCCCCCC(=O)N[C@@H](Cc1ccc(-c2ccccc2)cc1)C(=O)N[C@H]1/C=C/CNC(=O)/C=C/[C@H](C(C)C)NC1=O [analogue 14] ... 101000

[P] CCCCCCCCCC(=O)N[C@@H](Cc1ccccc1)C(=O)N[C@H]1CCCNC(=O)/C=C/[C@H](C(C)C)NC1=O [analogue 9]
[Q] CCCCCCCCCC(=O)N[C@@H](Cc1ccccc1)C(=O)N[C@H]1CC/C=C/CNC(=O)/C=C/[C@H](C(C)C)NC1=O [analogue 10]
[R] CCCCCCCCCC(=O)N[C@@H](Cc1ccccc1)C(=O)N[C@H]1/C=C/CNC(=O)/C=C/[C@H](C(C)C)NC1=O [analogue 8]
[S] CCCCCCCCCC(=O)N[C@@H](Cc1ccccc1)C(=O)N[C@H]1CCCCCNC(=O)/C=C/[C@H](C(C)C)NC1=O [analogue 12]
[T] CCCCCCCCCC(=O)N[C@@H](Cc1ccccc1)C(=O)N[C@H]1C/C=C/CCNC(=O)/C=C/[C@H](C(C)C)NC1=O [analogue 11]
-- ask Hey, quick one: sort these by kinact/KI, largest value first please. Answer by listing the labels in the requested order.
-- reply R, P, Q, T, S
(R: 12800 M⁻¹ s⁻¹, P: 6670 M⁻¹ s⁻¹, Q: 2550 M⁻¹ s⁻¹, T: 713 M⁻¹ s⁻¹, S: 224 M⁻¹ s⁻¹)
